assay: Toxicity to EPC cell line, MTT assay; format: cell-based, fish; conditions: fish; 24 h incubation, compound at its GI50 (24 h), MTT; read-out: EPC Cell Viability (%) Mean ± SD
attribute.measured: viability at 24 h (%)
Report the value in % with no unit label.

C[C@H]1CC[C@]2(NC1)O[C@H]1C[C@H]3[C@@H]4CC[C@H]5C[C@@H](O[C@@H]6O[C@H](CO)[C@H](O[C@@H]7O[C@H](CO)[C@@H](O)[C@H](O[C@@H]8OC[C@@H](O)[C@H](O)[C@H]8O)[C@H]7O[C@@H]7O[C@H](CO)[C@@H](O)[C@H](O)[C@H]7O)[C@H](O)[C@H]6O)CC[C@]5(C)[C@H]4CC[C@]3(C)[C@H]1[C@@H]2C :: 57.6

[Q] What viability at 24 h value was documented for this compound, CC1=CC(=O)c2c(O)cccc2C1=O ?
[A] 74.2

====

Below is a list of entries, each paired with its recorded viability at 3 h value.
test: Toxicity to EPC cell line, MTT assay; assay type: cell-based, fish; settings: fish; 3 h incubation, compound at its GI50 (24 h), MTT; read-out: EPC Cell Viability (%) Mean ± SD
Report the value in % with no unit label.

CC1=CC(=O)c2c(O)cccc2C1=O [Plumbagin] :: 78.7

Proceed to the following item.
[Q] What viability at 3 h value was documented for this compound, C[C@H]1CC[C@]2(NC1)O[C@H]1C[C@H]3[C@@H]4CC[C@H]5C[C@@H](O[C@@H]6O[C@H](CO)[C@H](O[C@@H]7O[C@H](CO)[C@@H](O)[C@H](O[C@@H]8OC[C@@H](O)[C@H](O)[C@H]8O)[C@H]7O[C@@H]7O[C@H](CO)[C@@H](O)[C@H](O)[C@H]7O)[C@H](O)[C@H]6O)CC[C@]5(C)[C@H]4CC[C@]3(C)[C@H]1[C@@H]2C [Tomatine] ?
[A] 63

====

system: Philasterides dicentrarchi; assay: microbe, parasite or virus in culture; conditions: Philasterides dicentrarchi, 24 h, read-out: Growth Inhibition 24 h (%), 100 μM, 24 h, culture medium, mean ± SD of three replicates
Values of inhibition at 100 µM greater than or equal to 30% map to 1.0; values below map to 0.0.

Answered examples (4):
O=c1ccc2ccc(O)cc2o1 [Umbelliferone] :: 1.0
O=c1ccc2cc(O)c(O)cc2o1 [Esculetin] :: 0.0
COc1cc2c(cc1OC)-c1cc3ccc(OC)c(OC)c3c[n+]1CC2 [Palmatine chloride] :: 0.0
CC12CCC(CC1)C(C)(C)O2 [Eucalyptol] :: 1.0

Let's switch to this compound now.
[Q] Would you say O=C(O)CCCC[C@@H]1SC[C@@H]2NC(=O)N[C@@H]21 [Biotin] shows inhibition at 100 µM at minimum 30%?
[A] 1.0

====

system: Philasterides dicentrarchi; experiment: microbe, parasite or virus in culture; details: Philasterides dicentrarchi, 24 h, read-out: Growth Inhibition 24 h (%), 100 μM, 24 h, culture medium, mean ± SD of three replicates
attribute.measured: inhibition at 100 µM (%)
Report the value in % with no unit label.

Some solved cases for reference:
O=c1ccc2ccccc2o1 [Coumarin] :: 23.5
O=C(/C=C/c1ccccc1)c1ccc(O)cc1O [2′,4′-dihydroxychalcone] :: 100
CCCCCCc1ccc(O)cc1O [4-hexylresorcinol] :: 100
O=c1cc(-c2ccccc2)oc2cc(O)ccc12 [7-hydroxyflavone] :: 67.4
O=C(/C=C/c1ccc(O)c(O)c1)O[C@H](Cc1ccc(O)c(O)c1)C(=O)O [Rosmarinic acid] :: 35

Proceed to the following item.
[Q] What inhibition at 100 µM value was documented for this compound, C[C@@H]1CC[C@H]2C(C)(C)[C@H]3C[C@@]12CC[C@@]3(C)O [Cedrol] ?
[A] 66.7
